Test system: M14 melanoma
measurement-description: NCI-60 one-dose screen, 48 h (100 = growth as untreated, 0 = no growth, -100 = all killed)
experimental-context: 10 µM unless noted
This is part of a sample that, as a whole, favours compounds with a hit. Of some 83,000 tested, about 20% had one in any assay.
Short version: growth at least 30% is label 1, less is label 0.

- compound: "CCCCCC(=O)OCc1ccccc1"
  label-value: "label 1"

For this compound, is measured growth 30% or higher? Cc1cc2c(c(=O)o1)C(c1ccc(OC(=O)N3CCOCC3)cc1)C(C#N)=C(N)O2 (configuration not stated)
label 1

Lookup `C=C1C(=O)O[C@H]2[C@H]1CC/C(Cn1cc(-c3ccccc3C(F)(F)F)nn1)=C\CC[C@@]1(C)O[C@@H]21`
label 0

Lookup `COc1ccc(/C(=N\O)c2cc(OC)c(OC)c(OC)c2)c(OC)c1N`
label 0

Lookup `Cc1sc(N=Nc2ccc(N(C)C)cc2)[n+]([O-])c1C`
label 1

Lookup `O=C1CCC/C=C\C[C@H]2C=CC(=O)/C2=C/C[C@H](C/C=C\CC(F)(F)F)O1`
label 0

====

System: OVCAR-5 ovarian
measurement-description: NCI-60 one-dose screen, 48 h (100 = growth as untreated, 0 = no growth, -100 = all killed)
experimental-context: 10 µM unless noted
About 83,000 compounds went through this panel and 20% of them were active in at least one assay; those are over-represented in the sample as a whole.
Entries and their growth values follow.
Numeric only. Scale: %

Example entries and their recorded answers appear below.
- compound: "COc1cc(NC(=O)CCl)ccc(=O)c1"
  endpoint-name: "growth"
  unit-of-measure: "%"
  reported-value: 93.2
- compound: "C=C1C(=O)O[C@H]2[C@H]1CC/C(COC(=O)NCc1cc(OC)c(OC)c(OC)c1)=C\\CC[C@@]1(C)O[C@@H]21"
  endpoint-name: "growth"
  unit-of-measure: "%"
  reported-value: 85
- compound: "COc1ccc(-c2nc(-c3nc4ccc(F)cc4[nH]3)cc3c2[nH]c2ccccc23)cc1"
  endpoint-name: "growth"
  unit-of-measure: "%"
  reported-value: 77.8

Given `CC[C@H](C)[C@H]1NC(=O)[C@@H](N[C@](C)(O)[C@@H](N)CC(C)C)[C@@H](C)OC(=O)[C@H](Cc2ccc(OC)cc2)N(C)C(=O)[C@@H]2CCCN2C(=O)[C@H](CC(C)C)NC(=O)[C@@H](C)C(=O)[C@H](C(C)C)OC(=O)C[C@@H]1O` , state its recorded growth.
-14.9

Lookup `COc1ccc(C(=O)c2cc(OC)c(OC)c(OC)c2)cc1/C=C/C(=O)c1ccc2c(c1)OCO2`
-16.7

Lookup `C=C1C(=O)O[C@H]2[C@H]1CC/C(Cn1cc(-c3ccsc3)nn1)=C\CC[C@@]1(C)O[C@@H]21`
-18.3

Lookup `Clc1ccc(-c2nc(-c3ccco3)cn3ccnc23)cc1`
87.9

Lookup `CCCCCCOc1ccc(C2(Cl)c3ccccc3N(C)c3ccccc32)cc1`
107

Lookup `COc1ccc(/C=C/C(=O)c2ccc(NC(=O)CN3CCN(c4cc5c(cc4F)c(=O)c(C(=O)O)cn5C4CC4)CC3)cc2)cc1`
105

Lookup `CC1CCN(C(=O)CSc2nc3sc4c(c3c(=O)[nH]2)CCCC4)CC1`
102

Lookup `CCC(=O)Oc1ccc2c(c1)CC[C@@H]1[C@@H]2CC[C@]2(C)C[C@H](OC(=O)CC)C[C@@H]12`
98.4
